- target_desc: Calcium-dependent protein kinase 1 (Plasmodium falciparum (isolate 3D7))
- test: PfCDPK1 kinase inhibitors, biochemical, TCAMS library (AID 1159585);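 also: inhibitors leave more ATP so luminescence rises with inhibition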
- study_conditions: recombinant PfCDPK1, Kinase-Glo ATP depletion luminescence
What IC50 was measured for each of the following?

CS(=O)(=O)Nc1cccc(-c2cnc3[nH]cc(-c4cccc(CN)c4)c3c2)c1 | 387 nM
O=C(NC1CC1)c1ccc(Nc2nccc(-c3c(-c4cccc(NC(=O)c5c(F)cccc5F)c4)nn4ccccc34)n2)cc1 | 26 nM
Oc1cc(-c2nc(-c3ccccc3)[nH]c2-c2ccncc2)ccc1Cl | 975 nM
CC(C)(CNCc1ccc(F)c(F)c1)c1nc(-c2ccc(Cl)c(O)c2)c(-c2ccncc2)[nH]1 | 451 nM
Nc1ncnc2occ(-c3ccc(NC(=O)Nc4cc(C(F)(F)F)ccc4F)cc3)c12 | 165 nM
CNC(=O)c1ccccc1Nc1nc(Nc2ccc(C(=O)O)cc2)ncc1Cl | 246 nM
Nc1ncc(-c2cn[nH]c2)cc1-c1nc2ncc(Cl)cc2[nH]1 | 280 nM
CCn1c(-c2nonc2N)nc2c(-c3cccc(NC(=O)Nc4cccc(C(F)(F)F)c4)c3)ncc(OCCCN)c21 | 15 nM

Now look at this entry.
Observed IC50 on Calcium-dependent protein kinase 1 (Plasmodium falciparum (isolate 3D7)), entry Cn1cc(-c2ccnc3[nH]c(-c4cccc(CNC5CCC(O)CC5)c4)cc23)cn1 (centres undefined) , equals 46 nM

The measured values listed here are drawn from PubChem BioAssay AID1159585.
